Biological target: T1, human MCH receptor (membranes from a stable CHO or HEK-293 cell line) (human, UniProt Q99705 1-353)
T1 construct: whole, on cells; also called cloned human MCH receptor (CHO clone)
T1 sequence (Q99705 whole entry): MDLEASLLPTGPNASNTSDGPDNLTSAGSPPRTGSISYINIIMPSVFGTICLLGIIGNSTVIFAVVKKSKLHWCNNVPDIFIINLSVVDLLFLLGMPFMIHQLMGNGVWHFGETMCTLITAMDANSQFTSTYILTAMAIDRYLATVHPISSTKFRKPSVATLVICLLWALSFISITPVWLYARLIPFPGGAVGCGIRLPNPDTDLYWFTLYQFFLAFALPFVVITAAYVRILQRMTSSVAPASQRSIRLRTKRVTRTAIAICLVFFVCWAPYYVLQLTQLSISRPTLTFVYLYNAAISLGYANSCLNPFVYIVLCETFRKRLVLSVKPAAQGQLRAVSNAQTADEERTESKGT
Experiment: competition vs [125I]-human MCH (Phe13,Tyr19); human MCH receptor cell membranes (Example 3)
pIC50: −log10 of the molar value. Bridges are numbered along the chain shown (N, C = ends).
Recorded measurements of pIC50, one per entry
assay_endpoint: pIC50

binder: RCMLLRVYRPC (N-terminal acetyl, C-terminal amide, Cys-Cys disulfide as in SEQ. ID. NO. 7, ID; NO; 7 peptide; MCH position numbering) [MCH analog SEQ. ID. NO. 48 (position 10: Leu)]
assay_value: 10.22

binder: RCMLNRVYRPC (N-terminal acetyl, C-terminal amide, Cys-Cys disulfide as in SEQ. ID. NO. 7, ID; NO; 7 peptide; MCH position numbering) [MCH analog SEQ. ID. NO. 51 (position 10: Asn)]
assay_value: 9.64

binder: RCMLSRVYRPC (N-terminal acetyl, C-terminal amide, Cys-Cys disulfide as in SEQ. ID. NO. 7, ID; NO; 7 peptide; MCH position numbering) [MCH analog SEQ. ID. NO. 52 (position 10: Ser)]
assay_value: 9.49

binder: RCMLXRVYRPC (D-Pro at position 10; N-terminal acetyl, C-terminal amide, Cys-Cys disulfide as in SEQ. ID. NO. 7, ID; NO; 7 peptide; MCH position numbering) [MCH analog SEQ. ID. NO. 57 (position 10: D-Pro)]
assay_value: 8.92

binder: RCMLERVYRPC (N-terminal acetyl, C-terminal amide, Cys-Cys disulfide as in SEQ. ID. NO. 7, ID; NO; 7 peptide; MCH position numbering) [MCH analog SEQ. ID. NO. 54 (position 10: Glu)]
assay_value: 6.72

binder: RCMLKRVYRPC (N-terminal acetyl, C-terminal amide, Cys-Cys disulfide as in SEQ. ID. NO. 7, ID; NO; 7 peptide; MCH position numbering) [MCH analog SEQ. ID. NO. 53 (position 10: Lys)]
assay_value: 6.96

binder: Ac-RCMLGRVYRPC-NH2 (disulfide 2-11 (inferred), Corresponds to MCH positions 6-16; also called ID; NO; 7 MCH analog) [truncated MCH analog SEQ. ID. NO. 7: Ac-Arg-Cys-Met-Leu-Gly-Arg-Val-Tyr-Arg-Pro-Cys-amide]
assay_value: 9.30

binder: RCMLPRVYRPC (N-terminal acetyl, C-terminal amide, Cys-Cys disulfide as in SEQ. ID. NO. 7, ID; NO; 7 peptide; MCH position numbering) [MCH analog SEQ. ID. NO. 50 (position 10: Pro)]
assay_value: 6.15

binder: RCMLARVYRPC (N-terminal acetyl, C-terminal amide, Cys-Cys disulfide as in SEQ. ID. NO. 7, ID; NO; 7 peptide; MCH position numbering) [MCH analog SEQ. ID. NO. 47 (position 10: Ala)]
assay_value: 9.23
